Entries and their peptide microarray binding signal values follow.
experimental-target: anti-H3K9me3 antibody ab8898
assay-overview: peptide microarray binding signal (635 nm), min-max normalized on array (fraction of array maximum); higher = stronger binding
reported-conditions: peptide region: Unmod H1 variant; binder concentration: 1:10,000 dilution

binder	peptide microarray binding signal
SKKSVKTPKKAKK [Unmod H1 variant S K K S V K T P K K A K K]	0.000577
SHYKVGENADSQI [Unmod H1 variant S H Y K V G E N A D S Q I]	0.000404
KPKAAKARVTKPK [Unmod H1 variant K P K A A K A R V T K P K]	0.000404

If you can, please state the reported peptide microarray binding signal value of AGKKAKKPAKAAA [Unmod H1 variant A G K K A K K P A K A A A] .
0.000692

How about this binder: SETVPPAPAASAA [Unmod H1 variant S E T V P P A P A A S A A]
0.00115

And for KSPAKAKAVKPKA [Unmod H1 variant K S P A K A K A V K P K A] ?
0.000577

Consider next the binder TKPGASKVATKTK [Unmod H1 variant T K P G A S K V A T K T K] in the same way.
0.000692

Further, for KAAKPKKAAAKKK [Unmod H1 variant K A A K P K K A A A K K K] ?
0.00156

What about ASGSFKLNKKAAS [Unmod H1 variant A S G S F K L N K K A A S] ?
0.00075

Do the same for TLVQTKGTGASGS [Unmod H1 variant T L V Q T K G T G A S G S] please
0.00231
